Every entry's value here was drawn from ChEMBL document CHEMBL5725788.

TESTED SYSTEM: Phosphatidylinositol 4,5-bisphosphate 3-kinase catalytic subunit alpha isoform (Homo sapiens)
Sequence (P42336 whole entry, canonical isoform): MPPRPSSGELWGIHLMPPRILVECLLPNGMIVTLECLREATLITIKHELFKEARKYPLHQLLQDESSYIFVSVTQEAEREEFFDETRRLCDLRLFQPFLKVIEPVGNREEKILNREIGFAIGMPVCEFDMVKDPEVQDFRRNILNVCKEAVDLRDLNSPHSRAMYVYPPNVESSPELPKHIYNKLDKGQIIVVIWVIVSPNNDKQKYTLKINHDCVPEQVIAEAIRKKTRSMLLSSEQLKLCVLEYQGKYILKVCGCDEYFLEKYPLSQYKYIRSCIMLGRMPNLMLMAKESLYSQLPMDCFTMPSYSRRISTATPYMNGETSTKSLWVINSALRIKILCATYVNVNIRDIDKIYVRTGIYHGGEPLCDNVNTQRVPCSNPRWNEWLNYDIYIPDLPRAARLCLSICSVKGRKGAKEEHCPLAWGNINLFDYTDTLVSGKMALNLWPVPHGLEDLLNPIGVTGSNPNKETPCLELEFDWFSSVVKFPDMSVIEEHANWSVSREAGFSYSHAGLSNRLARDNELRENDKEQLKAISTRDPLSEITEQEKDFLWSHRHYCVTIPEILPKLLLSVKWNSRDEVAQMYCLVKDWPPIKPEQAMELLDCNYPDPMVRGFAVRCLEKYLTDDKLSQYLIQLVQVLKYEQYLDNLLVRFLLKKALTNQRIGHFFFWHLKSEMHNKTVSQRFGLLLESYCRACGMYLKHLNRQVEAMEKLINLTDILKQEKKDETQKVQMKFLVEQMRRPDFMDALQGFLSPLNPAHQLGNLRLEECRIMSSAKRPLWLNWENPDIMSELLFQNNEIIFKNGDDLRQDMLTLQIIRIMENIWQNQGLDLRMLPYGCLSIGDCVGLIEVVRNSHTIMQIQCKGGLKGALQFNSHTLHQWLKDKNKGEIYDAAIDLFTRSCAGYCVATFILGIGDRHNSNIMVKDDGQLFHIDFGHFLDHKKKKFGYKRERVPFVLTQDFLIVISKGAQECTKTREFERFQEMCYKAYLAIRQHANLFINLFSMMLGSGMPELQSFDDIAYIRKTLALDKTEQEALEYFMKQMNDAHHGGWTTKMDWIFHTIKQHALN
TEST: Biochemical Assay: PI3K Isoform using biochemical assay.
pIC50: −log10 of the molar value.

ENTRY SMILES	pIC50
c1cc(-c2nc(N3CCOCC3)c3oc4ncc(CN5CCCCC5)cc4c3n2)c2cc[nH]c2c1	6.29

###

TESTED SYSTEM: Phosphatidylinositol 4,5-bisphosphate 3-kinase catalytic subunit gamma isoform (Homo sapiens, UniProt P48736)
Sequence (P48736 whole entry, canonical isoform): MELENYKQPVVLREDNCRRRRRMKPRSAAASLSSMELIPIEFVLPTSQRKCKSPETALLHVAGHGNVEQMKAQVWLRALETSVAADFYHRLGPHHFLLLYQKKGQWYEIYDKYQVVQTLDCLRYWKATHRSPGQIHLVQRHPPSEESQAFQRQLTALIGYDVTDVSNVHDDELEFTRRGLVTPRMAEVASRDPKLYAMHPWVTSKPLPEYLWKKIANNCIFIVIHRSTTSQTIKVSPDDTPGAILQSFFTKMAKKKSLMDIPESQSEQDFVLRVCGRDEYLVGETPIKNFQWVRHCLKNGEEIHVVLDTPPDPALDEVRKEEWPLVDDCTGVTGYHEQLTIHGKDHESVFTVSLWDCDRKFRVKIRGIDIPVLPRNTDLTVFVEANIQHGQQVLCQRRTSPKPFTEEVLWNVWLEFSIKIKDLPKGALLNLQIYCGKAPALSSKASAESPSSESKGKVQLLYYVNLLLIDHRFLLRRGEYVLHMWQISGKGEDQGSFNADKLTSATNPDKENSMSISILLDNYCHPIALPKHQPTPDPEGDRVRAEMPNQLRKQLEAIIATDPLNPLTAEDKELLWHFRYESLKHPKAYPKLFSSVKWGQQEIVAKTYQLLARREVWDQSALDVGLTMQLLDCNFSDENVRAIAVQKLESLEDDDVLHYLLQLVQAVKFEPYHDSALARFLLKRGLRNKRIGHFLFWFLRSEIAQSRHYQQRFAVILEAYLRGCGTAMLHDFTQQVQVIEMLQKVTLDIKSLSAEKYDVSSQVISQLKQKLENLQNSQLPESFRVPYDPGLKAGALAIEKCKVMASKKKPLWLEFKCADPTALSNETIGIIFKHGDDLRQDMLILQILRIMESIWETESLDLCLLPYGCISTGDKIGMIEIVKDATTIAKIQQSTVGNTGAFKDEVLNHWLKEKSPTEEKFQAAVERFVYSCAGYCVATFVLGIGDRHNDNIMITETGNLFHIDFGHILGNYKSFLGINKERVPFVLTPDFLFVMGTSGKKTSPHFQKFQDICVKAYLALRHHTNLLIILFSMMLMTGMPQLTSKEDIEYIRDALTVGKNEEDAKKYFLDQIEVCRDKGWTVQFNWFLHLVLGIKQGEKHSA
TEST: Biochemical Assay: PI3K Isoform using biochemical assay.

ENTRY SMILES	IC50 / µM
c1cc(-c2nc(N3CCOCC3)c3oc4ncc(CN5CCCCC5)cc4c3n2)c2cc[nH]c2c1	4.95

###

TESTED SYSTEM: Phosphatidylinositol 4,5-bisphosphate 3-kinase catalytic subunit delta isoform (Homo sapiens)
Sequence (O00329 whole entry): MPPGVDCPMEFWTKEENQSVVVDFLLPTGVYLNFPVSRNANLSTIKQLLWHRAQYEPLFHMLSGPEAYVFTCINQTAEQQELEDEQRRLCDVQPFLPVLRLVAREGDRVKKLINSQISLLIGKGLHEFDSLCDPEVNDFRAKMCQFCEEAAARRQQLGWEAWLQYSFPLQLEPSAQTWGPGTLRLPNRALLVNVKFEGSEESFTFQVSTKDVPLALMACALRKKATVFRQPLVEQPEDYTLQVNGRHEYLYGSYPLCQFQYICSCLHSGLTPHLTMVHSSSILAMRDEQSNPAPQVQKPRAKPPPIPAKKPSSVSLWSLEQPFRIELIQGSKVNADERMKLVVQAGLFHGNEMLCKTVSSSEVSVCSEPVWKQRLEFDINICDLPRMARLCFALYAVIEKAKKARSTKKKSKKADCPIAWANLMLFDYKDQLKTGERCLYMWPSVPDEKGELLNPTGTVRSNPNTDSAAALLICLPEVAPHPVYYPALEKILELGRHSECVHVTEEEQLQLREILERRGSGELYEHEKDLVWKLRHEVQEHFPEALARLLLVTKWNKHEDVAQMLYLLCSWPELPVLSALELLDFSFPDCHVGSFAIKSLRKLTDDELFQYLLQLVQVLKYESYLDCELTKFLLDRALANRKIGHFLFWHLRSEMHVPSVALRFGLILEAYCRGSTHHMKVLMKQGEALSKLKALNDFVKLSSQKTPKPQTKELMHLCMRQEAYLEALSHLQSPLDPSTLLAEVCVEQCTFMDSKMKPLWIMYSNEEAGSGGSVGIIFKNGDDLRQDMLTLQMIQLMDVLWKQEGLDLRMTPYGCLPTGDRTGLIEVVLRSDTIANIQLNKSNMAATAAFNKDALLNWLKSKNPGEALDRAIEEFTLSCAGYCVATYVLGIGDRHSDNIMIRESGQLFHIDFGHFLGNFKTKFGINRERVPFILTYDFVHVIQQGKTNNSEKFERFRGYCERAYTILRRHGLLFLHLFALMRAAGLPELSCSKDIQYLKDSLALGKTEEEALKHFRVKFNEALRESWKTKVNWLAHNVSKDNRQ
TEST: Biochemical Assay: PI3K Isoform using biochemical assay.

ENTRY SMILES	MEASUREMENT UNITS	IC50
c1cc(-c2nc(N3CCOCC3)c3oc4ncc(CN5CCCCC5)cc4c3n2)c2cc[nH]c2c1	nM	10
